Recorded Selectivity ratio, one value per entry.
tested.on: Monoamine transporters; Norepinephrine & serotonin (Rattus norvegicus) (UniProt P31652+Q9WTR4)
protocol.text: Selectivity for rat NET over rat 5HTT
Type: protein assay
# print the numeric value only

Record excerpt, results attached:
1. CO[C@H]1CCN2CCCC[C@@H]2[C@H]1c1ccccc1: 32
2. CC[C@@H]1CCN2CCCC[C@@H]2[C@H]1c1ccc(Cl)c(Cl)c1: 2.8
3. c1ccc(C2CCCNC2)cc1 (stereo not drawn): 19

# Selectivity ratio (compound: Clc1ccc([C@@H]2CCCN3CCCC[C@H]23)cc1Cl (relative stereo) ) is 0.64

# Selectivity ratio (compound: CC[C@H]1CCN2CCCC[C@@H]2[C@H]1c1ccc(Cl)c(Cl)c1 ) is 2

# Selectivity ratio (compound: O[C@@H]1CCN2CCCC[C@@H]2[C@H]1c1ccc(Cl)c(Cl)c1 ) is 5.6

# Selectivity ratio (compound: CC[C@H]1CCN2CCCC[C@@H]2[C@H]1c1ccccc1 ) is 58

# Selectivity ratio (compound: O[C@H]1CCN2CCCC[C@@H]2[C@H]1c1ccc(Cl)c(Cl)c1 ) is 6

----------
tested.on: Monoamine transporters; serotonin & dopamine (Rattus norvegicus) (UniProt P31652+P23977)
Sequence (P23977 whole entry, looked up, one chain of several): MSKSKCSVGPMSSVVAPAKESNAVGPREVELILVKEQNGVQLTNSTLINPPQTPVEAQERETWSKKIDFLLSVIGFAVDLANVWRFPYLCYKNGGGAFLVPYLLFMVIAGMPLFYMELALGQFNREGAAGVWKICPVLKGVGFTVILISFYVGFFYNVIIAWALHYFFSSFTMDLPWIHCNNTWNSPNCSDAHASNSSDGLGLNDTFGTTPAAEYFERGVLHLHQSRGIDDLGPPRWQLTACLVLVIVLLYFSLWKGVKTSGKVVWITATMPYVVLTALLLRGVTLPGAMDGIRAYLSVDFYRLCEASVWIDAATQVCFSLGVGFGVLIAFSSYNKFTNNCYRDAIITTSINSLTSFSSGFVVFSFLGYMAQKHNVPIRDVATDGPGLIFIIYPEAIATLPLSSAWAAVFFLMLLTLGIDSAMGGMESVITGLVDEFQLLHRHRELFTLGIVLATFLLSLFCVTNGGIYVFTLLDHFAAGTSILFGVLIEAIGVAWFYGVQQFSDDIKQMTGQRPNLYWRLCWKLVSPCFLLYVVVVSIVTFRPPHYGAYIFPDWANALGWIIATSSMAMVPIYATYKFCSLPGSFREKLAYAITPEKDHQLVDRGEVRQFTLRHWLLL
protocol.text: Selectivity for rat DAT over rat 5HTT
Assay type: protein assay
Recorded Selectivity ratio, one value per entry.

Record excerpt, results attached:
1) CCN1CCCC[C@@H]1[C@H](CO)c1ccccc1 (relative stereo): > 4.8
2) CCN1CCCC[C@@H]1[C@H](C)c1ccccc1 (relative stereo): > 1.3
3) CC[C@@]1(O)CCN2CCCC[C@@H]2[C@H]1c1ccccc1: > 57
4) OC[C@H](c1ccccc1)[C@H]1CCCCN1 (relative stereo): > 25
5) c1ccc(CC2CCCCN2)cc1 (stereo unspecified): > 1.6

Recorded Selectivity ratio for CO[C@@H]1CCN2CCCC[C@@H]2[C@H]1c1ccccc1 on Monoamine transporters; serotonin & dopamine (Rattus norvegicus) (UniProt P31652+P23977) was > 18

----------
tested.on: Sodium-dependent serotonin transporter (Rattus norvegicus)
Sequence (P31652 whole entry): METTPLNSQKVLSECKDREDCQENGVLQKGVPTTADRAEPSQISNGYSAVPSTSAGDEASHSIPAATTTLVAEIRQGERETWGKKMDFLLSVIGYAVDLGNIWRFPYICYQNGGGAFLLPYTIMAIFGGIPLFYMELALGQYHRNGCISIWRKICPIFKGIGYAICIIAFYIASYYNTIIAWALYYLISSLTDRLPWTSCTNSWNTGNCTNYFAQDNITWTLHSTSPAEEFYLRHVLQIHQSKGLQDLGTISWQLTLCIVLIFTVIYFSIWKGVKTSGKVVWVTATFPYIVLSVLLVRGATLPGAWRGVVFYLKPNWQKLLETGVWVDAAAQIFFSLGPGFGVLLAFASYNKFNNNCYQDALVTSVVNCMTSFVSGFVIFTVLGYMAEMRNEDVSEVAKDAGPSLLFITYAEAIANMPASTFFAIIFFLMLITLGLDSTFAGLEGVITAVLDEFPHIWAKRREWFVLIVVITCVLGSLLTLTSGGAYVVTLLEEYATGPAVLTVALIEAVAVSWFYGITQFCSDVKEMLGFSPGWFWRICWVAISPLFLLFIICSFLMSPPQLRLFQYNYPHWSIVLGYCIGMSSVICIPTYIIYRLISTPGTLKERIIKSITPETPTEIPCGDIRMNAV
quantity.kind: pKi
Scale note: pKi = -log10(concentration in M).

Record excerpt, results attached:
1) C[C@@H]1C[C@H](c2ccccc2)[C@H]2CCCCN2C1: 6.61
2) COC(=O)[C@H](c1ccc(Cl)c(Cl)c1)[C@H]1CCCCN1: 6.18
3) CC[C@@H]1CCN2CCCC[C@@H]2[C@H]1c1ccccc1: 5.62

Recorded pKi for COC(=O)[C@@H](c1ccc(Cl)c(Cl)c1)[C@H]1CCCCN1 (relative stereo) on Sodium-dependent serotonin transporter (Rattus norvegicus) was 5.59

----------
tested.on: Sodium-dependent serotonin transporter (Rattus norvegicus)
protocol.text: Displacement of [3H]citalopram from 5HTT in Sprague-Dawley rat cerebrum at 10 uM
Recorded inhibition, one value per entry.
Write the answer as a number in %, unit excluded.

Record excerpt, results attached:
1) COC(=O)[C@H](c1ccccc1Cl)[C@H]1CCCCN1: 22.2
2) CC[C@H]1CCN2CCCC[C@@H]2[C@H]1c1ccccc1: 86
3) CC[C@@H]1CCN2CCCC[C@@H]2[C@H]1c1ccccc1: 80

Recorded inhibition for OC[C@H](c1ccccc1)[C@H]1CCCCN1 (relative stereo) on Sodium-dependent serotonin transporter (Rattus norvegicus) was 31

Recorded inhibition for OC[C@H](c1ccc(Cl)c(Cl)c1)[C@H]1CCCCN1 (relative stereo) on Sodium-dependent serotonin transporter (Rattus norvegicus) was 94.6

Recorded inhibition for CO[C@@H]1CCN2CCCC[C@@H]2[C@H]1c1ccccc1 on Sodium-dependent serotonin transporter (Rattus norvegicus) was 14

----------
Recorded inhibition, one value per entry.
tested.on: Sodium-dependent serotonin transporter (Rattus norvegicus)
protocol.text: Displacement of [3H]citalopram from 5HTT in Sprague-Dawley rat cerebrum at 10 uM
Write the answer as a number in %, unit excluded.

Record excerpt, results attached:
1. O[C@@H]1CCN2CCCC[C@@H]2[C@H]1c1ccccc1: 1
2. CCN1CCCC[C@@H]1[C@H](C)c1ccccc1 (relative stereo): 11

Next compound, inhibition to be filled in.
# inhibition (compound: CCN1CCCC[C@@H]1[C@H](CO)c1ccccc1 (relative stereo) ) is 16.2

----------
tested.on: UniProt:P23977
protocol.text: Inhibition of [3H]DA uptake at DAT in Sprague-Dawley rat striatum
Recorded pIC50, one value per entry.
Scale note: pIC50 = -log10(concentration in M).

Record excerpt, results attached:
1. COC(=O)[C@H](c1ccc(Cl)c(Cl)c1)[C@H]1CCCCN1: 8.15
2. Clc1ccc([C@@H]2CCCN3CCCC[C@H]23)cc1Cl (relative stereo): 7.06
3. O[C@@H]1CCN2CCCC[C@@H]2[C@H]1c1ccccc1: 4.97
4. COC(=O)[C@H](c1ccccc1Cl)[C@H]1CCCCN1: 5.58
5. COC(=O)[C@@H](c1ccc(Cl)c(Cl)c1)[C@H]1CCCCN1 (relative stereo): 6.50

Next compound, pIC50 to be filled in.
# pIC50 (compound: OC[C@H](c1ccc(Cl)c(Cl)c1)[C@H]1CCCCN1 (relative stereo) ) is 7.65

----------
Structures can show the parent of a compound that is named as a salt.
Entries with their measured pKi, system UniProt:Q9WTR4:
Scale note: pKi = -log10(concentration in M).

1) O=C1CCN2CCCC[C@@H]2[C@H]1c1ccccc1 (relative stereo): 5.39
2) c1ccc(C2CCCNC2)cc1 (centres undefined): 6.27
3) COC(=O)[C@H](c1ccccc1)[C@H]1CCCCN1 [DEXMETHYLPHENIDATE HYDROCHLORIDE]: 6.57

# pKi (molecule: Clc1ccc([C@H]2CCCN3CCCC[C@H]23)cc1Cl (relative stereo) ) is 7.55

----------
Entries with their measured Ki, system Sodium-dependent dopamine transporter (Rattus norvegicus):
Write the answer as a number in nM, unit excluded.

1. CC[C@H]1CCN2CCCC[C@@H]2[C@H]1c1ccccc1: 5.51

# Ki (compound: COC(=O)[C@H](c1ccc(Cl)c(Cl)c1)[C@H]1CCCCN1 ) is 4.76

----------
tested.on: Monoamine transporters; Norepinephrine & serotonin (Rattus norvegicus) (UniProt P31652+Q9WTR4)
protocol.text: Selectivity for rat NET over rat 5HTT
Type: protein assay
quantity.kind: Selectivity ratio

Record excerpt, results attached:
1. CO[C@@H]1CCN2CCCC[C@@H]2[C@H]1c1ccccc1: > 4.9
2. O[C@H]1CCN2CCCC[C@@H]2[C@H]1c1ccccc1: > 28
3. CC[C@@]1(O)CCN2CCCC[C@@H]2[C@H]1c1ccccc1: > 6.6

# Selectivity ratio (molecule: O=C1CC[C@H](c2ccccc2)[C@H]2CCCCN12 ) is < 0.7

# Selectivity ratio (molecule: O=C1CCN2CCCC[C@@H]2[C@H]1c1ccccc1 (relative stereo) ) is > 2.5

----------
Entries with their measured Ki, system Sodium-dependent dopamine transporter (Rattus norvegicus, UniProt P23977):
Write the answer as a number in nM, unit excluded.

1) O=C1CCN2CCCC[C@@H]2[C@H]1c1ccccc1 (relative stereo): 908
2) COC[C@H](c1ccccc1)[C@H]1CCCCN1 (relative stereo): 89.9

Recorded Ki for CCN1CCCC[C@@H]1[C@H](C)c1ccccc1 (relative stereo) on Sodium-dependent dopamine transporter (Rattus norvegicus, UniProt P23977) was 7610

Recorded Ki for c1ccc([C@H]2CCCN3CCCC[C@H]23)cc1 (relative stereo) on Sodium-dependent dopamine transporter (Rattus norvegicus, UniProt P23977) was 76.2

Recorded Ki for CO[C@@H]1CCN2CCCC[C@@H]2[C@H]1c1ccccc1 on Sodium-dependent dopamine transporter (Rattus norvegicus, UniProt P23977) was 570

Recorded Ki for O[C@@H]1CCN2CCCC[C@@H]2[C@H]1c1ccccc1 on Sodium-dependent dopamine transporter (Rattus norvegicus, UniProt P23977) was 6250

Recorded Ki for OC[C@H](c1ccccc1)[C@H]1CCCCN1 (relative stereo) on Sodium-dependent dopamine transporter (Rattus norvegicus, UniProt P23977) was 406

Sourced from ChEMBL document CHEMBL1143672
